Record form. Attribute: growth inhibition. Fill in for each entry.
assay: NCI Yeast Anticancer Drug Screen. Data for the rad50 strain (AID 155);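 further: 0% = growth of vehicle-only cultures of the same strain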; settings: S. cerevisiae rad50 strain growth inhibition; at 50.0 µM; hits give high values
About 79,000 compounds went through this panel and 15% of them were active in at least one assay; those are over-represented in the sample as a whole. Where a SMILES comes first, the peptide text is derived from it. The star is where a group is joined. Boc = CC(C)(C)OC(=O)*
Answers are plain numbers, in %.

Example results:
- compound: "Nc1nc(-c2ccccc2)c(Cl)c(-c2cc(Cl)ccc2O)n1"
  growth inhibition, %: -1.45
- compound: "CCCCN(CCCC)S(=O)(=O)N1CCOCC1"
  growth inhibition, %: -12.3
- compound: "O=c1c(Cc2ccccc2)c(O)cc2n1CCC2"
  growth inhibition, %: -14.5
- compound: "c1ccc2c(c1)cnc1c3ccccc3ccc21"
  growth inhibition, %: 10.1
- compound: "CCOC(=O)C1CN(C2CCCCC2)CCC1=O (stereo not given)"
  growth inhibition, %: -2.45
- compound: "CCOC(=O)NC(Nc1cccc(F)c1)(C(F)(F)F)C(F)(F)F"
  growth inhibition, %: 16.8
- compound: "CCCCN(CCCC)C(C)=O"
  growth inhibition, %: -45.1
- compound: "O=C1/C(=C/c2ccccc2)CN(C(=O)CCN2CCOCC2)C/C1=C\\c1ccccc1"
  growth inhibition, %: 34.2

Hey, quick one: what's growth inhibition for each of these?
1. CC(=O)c1ccc2c(c1)-c1ccc(C(C)=O)cc1-2
2. COC(=O)CNC(=O)C(CC(C)C)NC(=O)C(CC(C)C)NC(=O)OC(C)(C)C (stereo not drawn) (Boc-Leu-Leu-Gly-OMe; configuration not given here)

-11.9
42.2

* * *

Assay: NCI Yeast Anticancer Drug Screen. Data for the sgs1 mgt1 strain (AID 161);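 further: 0% = growth of cultures given vehicle only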
Conditions: S. cerevisiae sgs1 mgt1 strain, at 50.0 µM, hits give high values
Method: Growth inhibition of yeast strains with defined genetic alterations is measured as a screen for potential anti-cancer activity. Selected strains with alterations in DNA damage repair or cell cycle control were exposed to compounds and growth inhibition was measured relative to vehicle treated controls. The strain used in this assay is sgs1 mgt1
This is part of a sample that, as a whole, favours compounds with a hit. Of some 79,000 tested, about 15% had one in any assay.
Exercise: for every item that follows, state its recorded growth inhibition.
One number for each entry, in %.

Provide growth inhibition for all items below, preserving their order.
1. c1ccc2[nH]c(CN3CCCCC3)cc2c1
2. Cc1nn(C(=S)S)c(C)c1N=Nc1ccc(O)cc1
3. CC(=O)Oc1ccc(/C=N\N(C)CN(C)/N=C/c2ccc(OC(C)=O)cc2)cc1
4. CCOC(=O)C(c1ccccc1)C(C)c1ccccc1 (stereo unspecified)
5. c1ccc(C2OC3C4COC(O4)C3O2)cc1 (stereo unspecified)
6. NC(=S)NNC(=O)/C(=C/c1ccc(/C=C(\NC(=O)c2ccccc2)C(=O)NNC(N)=S)cc1)NC(=O)c1ccccc1
7. O=C(/C(N=Nc1ccccc1)=C(\O)c1ccccc1)c1ccccc1

-8.95
16.9
31.6
1.85
-15.4
29.3
2.45

* * *

experiment: NCI Yeast Anticancer Drug Screen. Data for the sgs1 mgt1 strain (AID 161);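 further: 0% = growth of cultures given vehicle only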; details: S. cerevisiae sgs1 mgt1 strain, at 50.0 µM
The panel holds about 79,000 compounds, 15% with a hit somewhere; the sample as a whole holds those more often. Active and inactive are the calls of the source. Cut-off read from the data, not from the text of the source: active = growth inhibition above about 70%; inactive = the rest.
Your answer must be one of the following: active, inactive

Assay outcome for O=C(OCC1OC(c2ccccc2)OC2C(COC(=O)c3ccccc3)OC(c3ccccc3)OC12)c1ccccc1 (centres undefined) : what was it?
inactive

Dear all, I need the recorded test outcome for CC12CCC(=O)C=C1CCC1C2CCC2(C)C(C(=O)Cn3c(=O)[nH]cc(F)c3=O)CCC12 (centres undefined) , thank you.
inactive

Hi team, can someone confirm the assay call for "CSc1nc(=S)c2[nH]c(Cl)nc2[nH]1" ?
inactive

Outcome logged for O=c1ccn2cnc3c(ncn3C3OC(CO)C(O)C3O)c2n1 (centres undefined) in this assay:
inactive
